biological target: A139 iCAPS (purified human CB1 with ICL3 native sequence replaced with BRIL, in lipid bilayer) (human) (UniProt P21554); assay: ELISA, purified IgG on CB1 iCAPS
Sequence (P21554 whole entry): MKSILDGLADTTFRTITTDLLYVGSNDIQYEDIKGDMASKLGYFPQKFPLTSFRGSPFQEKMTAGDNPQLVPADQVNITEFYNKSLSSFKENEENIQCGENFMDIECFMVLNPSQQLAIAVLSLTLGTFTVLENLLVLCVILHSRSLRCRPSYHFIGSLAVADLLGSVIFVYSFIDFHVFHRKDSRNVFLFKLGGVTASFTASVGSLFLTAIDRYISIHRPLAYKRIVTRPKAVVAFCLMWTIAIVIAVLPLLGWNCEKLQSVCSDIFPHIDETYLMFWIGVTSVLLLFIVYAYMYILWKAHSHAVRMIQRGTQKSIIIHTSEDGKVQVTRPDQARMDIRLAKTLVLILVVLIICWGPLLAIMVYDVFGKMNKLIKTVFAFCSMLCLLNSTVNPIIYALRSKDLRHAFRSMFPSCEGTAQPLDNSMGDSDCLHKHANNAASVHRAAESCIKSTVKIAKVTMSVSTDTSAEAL
parameter: EC50 (nM)
Dear colleague, please return just the value in nM, with no unit written.

Data request: Look at this binder and give its reported EC50. PA2LR3-P4C6 (chimeric) (antibody, V domains shown) VH: EVQLQQSGAELVRPGSSVKISCKASGYAFSYYWMNWVKQRPGQGLEWIGQIYPGDGDTNYNGKFKGKATLTADKSSSTAYMQLSSLTSEDSAVYFCARSHGNYFPYWGQGTLVTVSA VL: DIVITQSPAIVSASLGERVTMTCTASSSVSSSYLHWYQQKPGSSPKLWIYSTSNLASGVPARFSGSGSGTSYSLTISSMEAEDAATYYCQQWSSYPLTFGAGTKLEIKR
Data returned: 0.4

Data request: Look at this binder and give its reported EC50. PA2LR3-P1G6 (chimeric) (antibody, V domains shown) VH: EVQLQQSGAELVRPGSSVKISCKASGYAFSYYWMNWVKQRPGQGLEWIGQIYPGDGDTNYNGKFKGKATLTVDKSSSTAYMQLSSLTSEDSAVYFCARSHGNYFAYWGQGTLVTVSA VL: DIVLSQSPAIMSASLGERVTMTCTASSSVSSSYLHWYQQKPGSSPKLWIYSTSNLASGVPARFSGSGSGTSYSLTISRMEAEDAATYYCQQWSSYPLTFGAGTKLELKR
Data returned: 35

Data request: Look at this binder and give its reported EC50. PA2R3-P1F1 (chimeric) (antibody, V domains shown) VH: EVQLQQSGAELMKPGASVKISCKATGYTFSSYWIEWVKQRPGHGLEWIGEILPGSGSTNYNEKFKGKATFTADTSSNTAYMQLSSLTSEDSAVYYCARGAWLLSYWYFDVWGAGTSVTVSS VL: DIQMMQSTSSLSASLGDRVTISCSASQGISNYLNWYQQKPDGTVKLLIYYTSSLHSGVPSRFSGSGSGTQFSLKINSLQPEDFGSYYCQHHYGTPYTFGGGTKLELKR
Data returned: 1.1

Data request: Look at this binder and give its reported EC50. PA2LR3-P1H4 (chimeric) (antibody, V domains shown) VH: EVQLQQSGAELVRPGSSVKISCKASGYVFGNYWMNWVKQRPGQGLEWIGQIYPGDGDTNYNGKFKGKATLTADKSSSTAYMQLSSLTSEDSAVYFCARSHGNYFPYWGQGTLVTVSA VL: QIVLTQSPAIMSASLGERVTMTCTASSSVSSSYLHWYQQKPGSSPKLWIYSTSNLASGVPARFSGSGSGTSYSLTISSMEAEDAATYYCQQWSSYPLTFGAGTKLELKR
Data returned: 33.5
